The values you see were collected from ChEMBL document CHEMBL3745676.

Recorded MIC by entry
# System: Mycobacterium tuberculosis
# assay: Antimycobacterial activity against multi-drug resistant Mycobacterium tuberculosis 7357/1998 after 14 days by microplate dilution method
# Type: functional
# run.parameters: 7357/1998, 336 h
experimental.readout: MIC

1) CCCCCCCCNc1cnc(C(=O)NCc2ccccc2)cn1
8 µM
2) CCCCCNc1nccnc1C(=O)NCc1ccccc1
1000 µM
3) CCCCCCCCNc1nccnc1C(=O)NCc1ccccc1
> 1000 µM
4) CCCCCCCNc1nccnc1C(=O)NCc1ccccc1
1000 µM
5) CCCCCCNc1cncc(C(=O)NCc2ccccc2)n1
32 µM
6) CCCCCCCCNc1cncc(C(=O)NCc2ccccc2)n1
16 µM
7) CCCCCNc1cnc(C(=O)NCc2ccccc2)cn1
16 µM
8) CCCCCCNc1nccnc1C(=O)NCc1ccccc1
1000 µM
9) CCCCNc1cncc(C(=O)NCc2ccccc2)n1
62.5 µM

---

Recorded MIC by entry
# Test system: Mycobacterium tuberculosis
# assay: Antimycobacterial activity against multi-drug resistant Mycobacterium tuberculosis 234/2005 after 14 days by microplate dilution method
# Assay type: functional
# run.parameters: 234/2005, 336 h
experimental.readout: MIC (µM)

1. CCCCNc1cnc(C(=O)NCc2ccccc2)cn1
125
2. CCCCCCCNc1cnc(C(=O)NCc2ccccc2)cn1
4
3. CCCCCCCNc1cncc(C(=O)NCc2ccccc2)n1
16
